Data provenance is patent US20080274055A1.

- Measured target: T1, carcinoembryonic antigen (CEA) (human, UniProt P06731 35-685)
- T1 sequence (looked up): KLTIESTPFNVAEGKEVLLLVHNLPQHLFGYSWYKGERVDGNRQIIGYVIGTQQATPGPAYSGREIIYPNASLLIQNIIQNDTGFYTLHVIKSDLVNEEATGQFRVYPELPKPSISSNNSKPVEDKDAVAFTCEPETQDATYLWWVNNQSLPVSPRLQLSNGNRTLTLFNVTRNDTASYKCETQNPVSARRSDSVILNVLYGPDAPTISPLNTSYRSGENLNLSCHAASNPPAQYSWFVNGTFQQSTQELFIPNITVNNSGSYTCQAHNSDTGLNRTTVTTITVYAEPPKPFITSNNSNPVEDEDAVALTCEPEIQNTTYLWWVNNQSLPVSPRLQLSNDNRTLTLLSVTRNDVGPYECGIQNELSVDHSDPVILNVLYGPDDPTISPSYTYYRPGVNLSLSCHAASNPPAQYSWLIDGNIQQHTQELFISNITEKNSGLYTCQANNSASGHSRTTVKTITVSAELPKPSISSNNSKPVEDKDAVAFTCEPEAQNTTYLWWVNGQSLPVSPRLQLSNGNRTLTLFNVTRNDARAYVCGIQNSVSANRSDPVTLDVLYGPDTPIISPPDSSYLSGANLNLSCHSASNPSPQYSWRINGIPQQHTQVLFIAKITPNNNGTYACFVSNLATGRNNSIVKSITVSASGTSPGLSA
- Assay comment: competition RIA, unlabeled antibody against 125I-mCOL-1 on CEA; modified Scatchard
Quantity kind: Ka (M⁻¹)

Binder	Unit of measure	Result
chimeric COL-1 (antibody, V domains shown) VH: EVQLQQSGAELVRSGASVKMSCTASGFNIKDYYMHWVKQRPEQGLEWIGWIDPENGDTEYAPKFQGKATMTTDTSSNTAYLQLSSLTSEDTAVYYCNTRGLSTMITTRWFFDVWGAGTTVAVSS VL: DIVLTQSPASLTVSLGLRATISCRASKSVSASGYSYMHWYQQRPGQPPKLLIYLASNLQSGVPARFSGSGSGTDFTLNIHPVEEEDAATYYCQHSRELPTFGGGTKLEIK	M⁻¹	1.99e+08
FRV5 (antibody, name in Kabat numbering, V domains shown, Kabat positions; also called HuCOL-1AbrCDR framework variant 5) VH: EVQLVQSGAEVVKPGASVKVSCKASGFNIKDYYMHWVRQRPEQGLEWMGWIDPENGDTEYAQKFQGRATMTTDTSTSTVYMELSSLRSEDTAVYYCNTRGLSTMITTRWFFDVWGAGTLVTVSS VL: DIVMTQSPASLAVSLGERATINCKSSQSVSASGYSYMHWYQQKPGQPPKLLIYLASNLQSGVPARFSGSGSGTDFTLTISSLQAEDVATYYCQHSRELPTFGGGTKVEIK	M⁻¹	1.01e+08
FRV6 (antibody, name in Kabat numbering, V domains shown, Kabat positions (see notes of FRV2 and FRV5); also called HuCOL-1AbrCDR framework variant 6) VH: EVQLVQSGAEVVKPGASVKVSCKASGFNIKDYYMHWVRQRPEQGLEWMGWIDPENGDTEYAQKFQGRATMTTDTSTSTVYMELSSLRSEDTAVYYCNTRGLSTMITTRWFFDVWGAGTLVTVSS VL: DIVMTQSPASLAVSLGERATINCKSSQSVSASGYSYMHWYQQKPGQPPKLLIYLASNLQSGVPDRFSGSGSGTDFTLTISSLQAEDVAVYYCQHSRELPTFGGGTKVEIK	M⁻¹	1e+08
